All figures here come from BindingDB's records for doi:10.1021/jm9604890.

- METHOD NOTES: Compound was tested for intrinsic efficacy against human 5-hydroxytryptamine 1D receptor alpha measured as the reduction of forskolin-stimulated cAMP.
Let's look at some molecules and their measured Ki.

>  <CPD SMILES>
CCCN(CCC)CCc1c[nH]c2ccc(OS(=O)(=O)C(F)(F)F)cc12

>  <Ki>
36 nM

$$$$
>  <CPD SMILES>
NCCc1c[nH]c2ccc(OS(=O)(=O)C(F)(F)F)cc12

>  <Ki>
19 nM

$$$$
>  <CPD SMILES>
CN(C)CCc1c[nH]c2ccc(OS(=O)(=O)C(F)(F)F)cc12

>  <Ki>
30 nM

$$$$
